Entry source: ChEMBL document CHEMBL5604062

# TARGET SYSTEM: Nonstructural protein 3 (Zika virus)
# Sequence (A0A024AXB9 whole entry): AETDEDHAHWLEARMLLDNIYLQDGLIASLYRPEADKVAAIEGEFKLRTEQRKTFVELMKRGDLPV
# EXPERIMENTAL PROTOCOL: Functional biochemical assay to identify treatments for viral infectious disease that targets Zika NS2B-NS3 protease. Utilizing a direct enzyme activity measurement method, reading the fluorescence intensity is used to characterize the relative potency of inhibitors as IC50.
# Set-up: species or system PRVABC59
Listing of recorded IC50 by entry.

Study these solved cases before continuing.
Reported IC50 ( Cc1cc(NS(=O)(=O)c2ccc(Oc3ccccc3Cl)cc2)c(C(=O)NCC(F)(F)F)cc1F ) = 72.3 µM

Reported IC50 ( NCc1cccc(NC(=O)[C@@H](NC(=O)OCc2ccccc2)c2ccc(OCc3cnccn3)cc2)c1 ) = > 99.5 µM

Reported IC50 ( O=C(NCC(F)F)[C@H](Nc1ccc2c(c1)CNC2)c1cccc2c1CCC2 ) = 3.62 µM

As a next step, examine the compound that follows.
Reported IC50 ( COc1cc(C(=O)Nc2cccc(CN)c2)cc(NC(=O)OCc2ccccc2)c1Cl ) = 38.1 µM
